Values were extracted from paper PMC10397247.

Measured interaction score by item
Target: T1, 4H797-bH
T1 chain: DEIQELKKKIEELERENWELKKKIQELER
Assay: two-hybrid library CCNG1;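 further: natural log of median RNA to DNA barcode read ratio; higher means stronger binding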
Lab note: jot the number down without any unit.

Here's what some known entries look like.
[in] So what does the record say about interaction score for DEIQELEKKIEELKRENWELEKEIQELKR [4H338-bH] ?
[out] -0.318

[in] Given the binder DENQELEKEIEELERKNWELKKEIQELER [4H1081-bH] , what is its reported interaction score?
[out] -0.717

[in] Looking for the measured interaction score of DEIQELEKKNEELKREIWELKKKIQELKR [4H462-bH] , can you help?
[out] -0.33

[in] Reported interaction score for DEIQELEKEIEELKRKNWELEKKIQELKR [4H118-bH] : what is it?
[out] -0.304

[in] Request the reported interaction score associated with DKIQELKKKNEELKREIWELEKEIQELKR [4H3010-bH]
[out] -1.11

[in] What value of interaction score has been reported for the following binder? DEIQELKKKIEELEREIWELKKENQELKR [4H780-bH]
[out] -0.654

Now, please, on to the next binder.
[in] Suppose we examine the binder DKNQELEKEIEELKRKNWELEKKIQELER [4H3189-bH] ; what interaction score value has been reported?
[out] -0.148
